assay: In vitro metabolism: disappearance of parent compound in rat liver microsomes (male, female); type: in vitro ADME; conditions: female rat liver microsomes, 5 uM compound, 30 minutes 37° C.
Assay Readout: Fem. Rat (FR) % rem. 30′ (%)

Molecule: COc1nc(OC)c(NC(=O)c2ccc(Cc3cc4c(cc3C)C(C)(C)CCC4(C)C)o2)c(OC)n1 [Example C1]
Reported Measurement: 72
--
Molecule: COCCOc1nc(OC)c(NC(=O)c2ccc(Cc3cc4c(cc3C)CCCC4(C)C)o2)c(OC)n1 [Example E1]
Reported Measurement: 76
--
Molecule: COc1nc(NCCCN2CCOCC2)nc(OC)c1NC(=O)c1ccc(Cc2cc3c(cc2Cl)C(C)(C)CCC3(C)C)o1 [Example G1]
Reported Measurement: 92
--
Molecule: COc1nc(NCCNCCN)nc(OC)c1NC(=O)c1ccc(Cc2cc3c(cc2C)C(C)(C)OC3(C)C)o1 [Example D12]
Reported Measurement: 80
--
Molecule: COc1nc(N(C)C)nc(OC)c1NC(=O)c1ccc(Cc2cc3c(cc2C)C(C)(C)OC3(C)C)o1 [Example D8]
Reported Measurement: 84
--
Molecule: COc1nc(NCCN2CCCC2)nc(OC)c1NC(=O)c1ccc(Cc2cc3c(cc2C)C(C)(C)OC3(C)C)o1 [Example D5]
Reported Measurement: 95
--
Molecule: COc1nc(NCCCN2CCN(CCCN)CC2)nc(OC)c1NC(=O)c1ccc(Cc2cc3c(cc2C)C(C)(C)OC3(C)C)o1 [Example D18]
Reported Measurement: 97
--
Molecule: COc1nc(NCCCN2CCOCC2)nc(OC)c1NC(=O)c1ccc(Cc2cc3c(cc2C)CCCC3(C)C)o1 [Example F1]
Reported Measurement: 81
--
Molecule: COc1nc(NCCC#N)nc(OC)c1NC(=O)c1ccc(Cc2cc3c(cc2C)CCCC3(C)C)o1 [Example F2]
Reported Measurement: 100
--
Molecule: COc1nc(OC)c(NC(=O)c2ccc(Cc3cc4c(cc3C)C(C)(C)OC4(C)C)o2)c(OC)n1 [Example A1]
Reported Measurement: 74
--
Molecule: COc1nc(NCCN2CCCCC2)nc(OC)c1NC(=O)c1ccc(Cc2cc3c(cc2C)C(C)(C)OC3(C)C)o1 [Example D6]
Reported Measurement: 90
--
Molecule: COc1nc(NCCCN2CCOCC2)nc(OC)c1NC(=O)c1ccc(Cc2cc3c(cc2C)C(C)(C)CCC3(C)C)o1 [Example B4]
Reported Measurement: 100
--
Molecule: COc1nc(NCCN2CCNCC2)nc(OC)c1NC(=O)c1ccc(Cc2cc3c(cc2C)C(C)(C)OC3(C)C)o1 [Example D14]
Reported Measurement: 90
--
Molecule: CCN(CC)CCNc1nc(OC)c(NC(=O)c2ccc(Cc3cc4c(cc3C)C(C)(C)OC4(C)C)o2)c(OC)n1 [Example D7]
Reported Measurement: 95
--
Molecule: COc1nc(Nc2ccccc2)nc(OC)c1NC(=O)c1ccc(Cc2cc3c(cc2C)C(C)(C)OC3(C)C)o1 [Example D1]
Reported Measurement: 81
--
Molecule: COc1nc(N(CCCN)CCCN)nc(OC)c1NC(=O)c1ccc(Cc2cc3c(cc2C)C(C)(C)OC3(C)C)o1 [Example D16]
Reported Measurement: 95
--
Molecule: COc1nc(NCCN(C)C)nc(OC)c1NC(=O)c1ccc(Cc2cc3c(cc2C)C(C)(C)OC3(C)C)o1 [Example D10]
Reported Measurement: 79
--
Molecule: COc1nc(NCCN2CCOCC2)nc(OC)c1NC(=O)c1ccc(Cc2cc3c(cc2C)C(C)(C)OC3(C)C)o1 [Example D4]
Reported Measurement: 76

###

Molecular target: rat GnRH receptor (Rattus norvegicus, UniProt P30969)
Construct: or rat pituitaries (Pel Freez Biologicals, Rogers, Ark.) were homogenized; tissue Pel Freez Biologicals; host or cells: rat pituitaries (membrane preparation)
Sequence (P30969 1-327): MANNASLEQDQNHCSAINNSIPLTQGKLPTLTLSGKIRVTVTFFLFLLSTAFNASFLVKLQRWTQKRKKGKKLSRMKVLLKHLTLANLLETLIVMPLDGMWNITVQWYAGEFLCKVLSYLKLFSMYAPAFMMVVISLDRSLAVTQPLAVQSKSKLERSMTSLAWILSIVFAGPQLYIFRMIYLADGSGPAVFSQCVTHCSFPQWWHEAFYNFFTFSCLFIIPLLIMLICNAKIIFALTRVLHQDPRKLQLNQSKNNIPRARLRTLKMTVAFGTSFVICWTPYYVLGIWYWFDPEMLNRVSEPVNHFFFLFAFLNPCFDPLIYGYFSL
Assay: Radioligand binding: inhibition of 125I-GnRH-A binding to rat GnRH receptor (rat pituitary membranes)
Conditions: read-out: Ki (nM), Inhibition Binding of 125I-GnRH-A to GnRH Receptors
The label is class 1 for Ki below 3 nM and class 0 for Ki equal to or exceeding 3 nM.

Compound: COc1nc(N(CC(C)O)CC(C)O)nc(OC)c1NC(=O)c1ccc(Cc2cc3c(cc2C)C(C)(C)OC3(C)C)o1 (centres unmarked)
Qualitative Label: class 1

Compound: COc1nc(NCC(c2ccc[nH]2)C(F)(F)F)nc(OC)c1NC(=O)c1ccc(Cc2cc3c(cc2C)C(C)(C)OC3(C)C)o1 (centres unmarked)
Qualitative Label: class 0

Compound: COc1nc(NCCCN2CCN(CCCN)CC2)nc(OC)c1NC(=O)c1ccc(Cc2cc3c(cc2C)C(C)(C)OC3(C)C)o1
Qualitative Label: class 1

Compound: COc1nc(OC)c(NC(=O)c2ccc(Cc3cc4c(cc3C)C(C)(C)CCC4(C)C)o2)c(OC)n1
Qualitative Label: class 1

Compound: COc1nc(NCCCN2CCOCC2)nc(OC)c1NC(=O)c1ccc(Cc2c(C)cc3c(c2C)C(C)(C)CCO3)o1
Qualitative Label: class 0
